Test system: L1210 leukemia ip in BDF1 mice, survival T/C
procedure-summary: NCI In Vivo Anticancer Drug Screen. Data for tumor model L1210 Leukemia (intraperitoneal) in B6D2F1 (BDF1) mice
protocol-conditions: endpoint: mean survival time; dose: 40.0 mg/kg/injection; schedule: Q01DX001 (ip); vehicle: saline; higher = longer survival
Toxic doses and inconclusive results are not listed.
quantity: T/C

>>> assay_result("Nc1ccc(S(=O)(=O)NCc2nccs2)cc1")
"102 % of control"

Provide T/C value for the following compound: "OCCN(CCO)CCN1c2ccccc2Sc2ccccc21"
95 % of control

Provide T/C value for the following compound: "N=C(N)c1ccc(OCCCCCCOc2ccc(C(=N)N)cc2)cc1"
101 % of control

Provide T/C value for the following compound: CC1(CCCOc2ccc(NC(=O)CBr)cc2)N=C(N)N=C(N)N1c1ccccc1 (stereo not given)
91 % of control

Provide T/C value for the following compound: "CC(C)N1CCc2cc3c(cc2C1)OCO3"
104 % of control
